# measuredTarget: human DGAT1 enzyme (Homo sapiens, UniProt O75907)
# Construct: made in house; host or cells: Sf9 insect cells (microsomal membranes)
# Sequence (O75907 1-488): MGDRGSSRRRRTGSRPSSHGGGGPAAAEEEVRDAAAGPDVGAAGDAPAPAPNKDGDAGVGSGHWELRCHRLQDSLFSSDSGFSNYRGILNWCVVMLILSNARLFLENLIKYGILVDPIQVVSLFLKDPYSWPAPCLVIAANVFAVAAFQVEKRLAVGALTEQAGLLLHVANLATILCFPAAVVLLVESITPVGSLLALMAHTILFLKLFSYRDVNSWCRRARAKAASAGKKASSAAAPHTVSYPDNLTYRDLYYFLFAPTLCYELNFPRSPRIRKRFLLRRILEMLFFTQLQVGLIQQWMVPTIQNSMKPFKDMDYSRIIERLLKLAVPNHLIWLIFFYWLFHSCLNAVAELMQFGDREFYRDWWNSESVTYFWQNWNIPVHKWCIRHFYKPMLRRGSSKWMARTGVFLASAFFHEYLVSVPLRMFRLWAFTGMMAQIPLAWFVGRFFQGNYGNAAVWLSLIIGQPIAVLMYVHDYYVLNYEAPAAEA
# methodDescription: in vitro DGAT1 inhibition assay (microsomes, [14C]-palmitoyl-CoA, SPA beads)
# Format: biochemical
measurementKind: pIC50
One number for each entry, as −log10 of the molar value.

pIC50 lookup needed for Cc1c(C(=O)Nc2ccc(N3CCN(C(=O)Nc4ccccc4F)CC3)nc2)oc2c(C)cccc12 , thanks.
7.32

###

# measuredTarget: human DGAT1 enzyme (Homo sapiens, UniProt O75907)
# Construct: made in house; host or cells: Sf9 insect cells (microsomal membranes)
# methodDescription: in vitro DGAT1 inhibition assay (microsomes, [14C]-palmitoyl-CoA, SPA beads)
# Format: biochemical
# condition: human DGAT1 expressed in Sf9 insect cells, microsomes; 2 hours at room temperature; read-out: IC50
Please provide measured pIC50 for the entries that follow.
Numbers only, as −log10 of the molar value.

In [3]: df
Out[3]:
                                smilesinput  measurementkind  recordedresult
0  Cc1c(C(=O)Nc2ccc(N3CCC(COc4cccc(C(=O)O)c4)CC3)nc2)oc2ccc(-c3ccc(F)cc3)cc12            pIC50            7.26

Below is a list of compounds. For each, state its recorded pIC50.
1. CCOC(=O)c1ccccc1NC(=O)N1CCN(c2ccc(NC(=O)c3oc4ccc(-c5ccccc5)cc4c3C)cn2)CC1
2. Cc1c(C(=O)Nc2ccc(N3CCN(C(=O)Nc4ccccc4F)CC3)nc2)oc2cc(-c3ccccc3)ccc12
3. Cc1c(C(=O)Nc2ccc(N3CCN(C(=O)[C@H](O)c4ccccc4)CC3)nc2)oc2ccccc12
4. Cc1c(C(=O)Nc2ccc(N3CCC(OCc4cccc(C(=O)O)c4)CC3)nc2)oc2ccc(-c3ccccc3F)cc12
5. Cc1c(C(=O)Nc2ccc(N3CCC(OCc4cccc(C(=O)O)c4)CC3)nc2)sc2ccc(-c3ccccc3)cc12
6. Cc1c(C(=O)Nc2ccc(N3CCN(C(=O)Nc4ccccc4C(=O)O)CC3)nc2)oc2ccc(-c3cccc(F)c3)cc12

1: 6.44; 2: 6.55; 3: 6.20; 4: 7.03; 5: 7.55; 6: 7.08

Hey, just so you know, these numbers are from patent US20120172369A1.
